Where do these numbers come from? They come from the domain aggregation screens of Martell et al. (2025).

# experiment description: soluble fraction after stress (log2 fold change); higher = more stays soluble; pooled small domains, quantitative proteomics
# conditions: stress: pH 4
measured parameter: soluble fraction (log2)
Write the number on its own, no unit after it.

Examples with their reported soluble fraction (log2) follow.
HMVQMNMLELQEEMQRDRSWIIKHLFQDEYFRRKIAKFSQFPINDSGKYLFHRKSMLKFLNDYAEEIVER | -1.46
HMNHHEIIMKNIDTLLKEKNISISKLEKSLGISNGYISRLRNGKYNFSLDLLLKLAKKFKISIDYLLTDFD | -0.119
HMGLVVIGTEAGYPAEKAGILAGDRIRKLNGAAVPDYDTFLTALAARKGEPSAIELERDGKTLEVTVSPL | -0.21
HMPARTANEEAIRKYLLNHDSITRKETQALLKTGQSAAGRILKEMVENGWLARIGNGRSTGYELR | 0.244
HMSSKIKYSEFITMLDKGEVESVVLKSDTLTITLKHGTGVAAQTKTTTLMEDLSELTKRLEKAGIKDFDK | 0.22
HMHFDQILAHAMDERGMNAVQLASLTGLSSGAISRYLAGDRQPTVYSIQQIAKALGVSADYLVG | 0.22
HMLPTVSITGHIFIRSGSPLNRIFVGEKIYHVGDHIDRDWVIESIGIDTLTIRSGTLSTQLPL | 0.034
HMGTTAWISTKTANGSVNIRTGPGTGYGVIGWALNGDKLEVLSRGTSWHYVKLVKNGKIGYVSASYVSFTQ | -0.399
HMSEIKDRLREARRNKGLSQAGLSKLLGVSQASIAAIESGRNKRPTNLVSIAKALDVSPYWLETGK | 0.0733
HMAMDVKEVLLPGVGLRYEFDNSDGDRIGVIAKRSGDFEVVRYTAADRDAAQPMFRLTDEEADALAQILGA | -0.487

Kindly review the next sequence as well.
soluble fraction (log2) in this record for HMQTMTDDQVMQYVISQQEKGATQQDIVSKLLQKGVTVDQMRRIRKKYEAQQSQPGALDLTGSS : -0.0786

* * *

Some sequences, each annotated with its measured soluble fraction (log2).
# experiment description: soluble fraction after stress (log2 fold change); higher = more stays soluble; pooled small domains, quantitative proteomics
# conditions: stress: pH 4
Write the number on its own, no unit after it.

Examples with their reported soluble fraction (log2) follow.
HMDKSFYETFEKIGHGDFDKGLNHVWQHANDGNGTATLLLSKLFLEFGDLDNFEKYLNISAEQSNPVAMKI | -0.191
HMSSLSGVRRTLLDSLGMPPDASDEELADRREELRGSLDTAPQARRKWIEQQLARIDAITALDASG | -0.0243
HMNLGETIYNLRKEKKLSQGDLAEQLSVSRQSVSKWENNSAVPDLDKLVKLSTIFGVSLDELVKG | 0.409
HMGISQAQAMQALRKLIEEEDKHTPLSDQTLMERLKAAGIPLARRTIAKYRESLGIPSAAQRK | -0.0327
HMEDESSIERYLGSGAIKGIGPSLAARIVKKFGKDTFRIIEQEPERLAEIKGISERKAMEISTLMEEK | 0.0126
HMGMDALIGRRVFVSEEILPGDTGGRMAVDGDSWRAISVGTASNIPAGTEVRIRGHQSLVLEVEP | -0.629
HMDPVILDINSVKALLGISNKADFMAELSRLVVTEGDKKMIIPLAKEVGIDNVAVYKRNEIENISNYK | -0.297
HMASSRPLAEGDFVRLRAGGATGRIESIKGQKATVQMGGLKVHAPLRDLLPVAEPIKQVSTASNT | 0.203

soluble fraction (log2) in this record for HMNRREFQFSEGSSNKFWSIELRDQSFIVHYGKIGTNGQAQEKTFATADAAKKEHDKLIAEKTKKGYVEVQ : -0.691

soluble fraction (log2) in this record for HMKQAINFSDLNSLEEGLGIAIRQKWNEVSINDVPEDKIELVEDWINNNRGKYKGINISIGSTY : 0.0722

soluble fraction (log2) in this record for HMDAATDAIKAEVRALLEMANAQGIDTESIMLEAHEQTRNATEQDYYEAAKSALEAAIAGSNRDR : -0.319

soluble fraction (log2) in this record for HMRLNIRTKNNYSYYTIIKDYTNLNGKRTTTIFEKLGNQQQVEERFGKVNTIENIKKYIEELNNE : 0.22

soluble fraction (log2) in this record for HMQALDNNDALEEIIKKVITENPSQVTEFRNGKDSLMNFLVGKVMAASGGKANPKTLPETIEKIIK : 0.277

soluble fraction (log2) in this record for HMQEAATSLNAKILAKLRENNGTLAVSDKSDPALISSLFGVSKGNFKKAIGALYKNGQIVIHADRIEL : 0.00478

soluble fraction (log2) in this record for HMFFFILNKGAKSGGEITHAVLNGSIVSKPAGWDAFHGLVLAKEKLSSEEIQRQMKELGVEMEIVPL : -1.18

soluble fraction (log2) in this record for HMSEQTLEDVRRLIEHLPESQKEVVKMRYYQDLSFKEIADLKGISINTALGRMHYAINNMRKMAKEYGL : -0.473

soluble fraction (log2) in this record for HMTSPRRLYALIVEHVGKDGVMHRSDVENVLAKVESEMDVDDLLDQLEINGTIIRRQDGTWQLL : -1.66

* * *

# experiment description: soluble fraction after stress (log2 fold change); higher = more stays soluble; pooled small domains, quantitative proteomics
# conditions: stress: pH 4
measured parameter: soluble fraction (log2)

HMGQELRFVIQDHEAGIRLDHYLTQQVEGYSRSHLRKLMDQGLITVDGSYRKAGYRLNVGDVIHVVIPPTR | -0.0619
HMLKQLGRQEGRQEGAVDALRTVLALQIEQRFGPLDPTVQALIVAADIDALQRALSRVAVVSDLGAVFPP | -0.862
HMTIGKRIKRRRIELKMSIDSLARTIGKDRSTVYRYESGAIDKVSSDVLAKLATALNTTPAYLIGL | 0.22

soluble fraction (log2) in this record for HMGLSAEAARMAIQDAGLSKEDFAQKLGIKKVERVVEWEAGTSKPTFVQAQKIANATNIPFGYLFLVNPPK : 0.0939

soluble fraction (log2) in this record for HMKTNQINVSGLSKEKNFEVLESLDVYKFYNLFFLNKIKIDQLINSYNHIDNYSVFKKYPSSLIVKLSE : -0.0619

* * *

# experiment description: soluble fraction after stress (log2 fold change); higher = more stays soluble; pooled small domains, quantitative proteomics
# conditions: stress: pH 4
Classify by measured soluble fraction (log2): Yes if it is equal to or exceeds -0.3, No if it is smaller.

HMLSTGQLIRYYRKRAGMTQAELAEEVEMSEPGIRNYELGNRTPSKAQLSAIARGLGIEPEALI | Yes
HMDKWFPVSSDHKVQVGDYLRTADGLVKVEATHNEYGTFYGKIITAIHDDVVKGETYEYRIDDVQVLA | No
HMGQELTPVERTALDIAARDGKVSTRILAQEAGIGLRTASKTLAALAERGLLTWHGTSRRDPQQHYTS | Yes
HMQITSTDEIEKMIDELIAANPEQTKQYQNGNHKVAGWFVGQMMKASKGKANPQMVNNLLQKKL | Yes
HMEVLPLHQVKLKYAEADTILIALKSAQSMLSPRGQLLADNRSQQIFVYDDEAHTATLIEAIKHLDQPL | No
HMGTVISVDKARSIALAKVPGASANDIRIHLDRDDGRQIYEGEIYYNRMEYEFEIDASTGTIIEWSAEHW | Yes
HMDALTLSIDAQGALYWNGQPVSRELAAQRFVEAAAQRPQPELHLRADQNVAYRHVAMTLADASRAGLTR | No

# next sequence below
Problem: API: above_or_equal(metric=soluble fraction (log2), cutoff=-0.3) for item HMKWYDSDKGFGFLSQEEGEDVYVRSSALPAGVEGLKAGQRVEFGIASGRRGPQALSL
Result: No

* * *

# experiment description: soluble fraction after stress (log2 fold change); higher = more stays soluble; pooled small domains, quantitative proteomics
# conditions: stress: pH 4
Some sequences, each annotated with its measured soluble fraction (log2).
Write the number on its own, no unit after it.

Examples with their reported soluble fraction (log2) follow.
HMDGNVPSVEGKPLSGAKYILETYGYKTGTVTEVNSEDVPAGIVISQNPARGTTLANGGSVNLQVSLG | 0.238
HMGGEPKALLFAGVETREMAEITQRLEAADIPYEIREDGGSIYVARSEVFNARMMLSADGLPS | 0.233
HMTEKPTREAHILDQLARDGGVLVAALSRELGVSEVTIRSDLRDLEAAGLLQRTHGGAQASSFQTVL | -0.48
HMEEAQWEFKWENTDSAEIHGPHSSSEMLKWQENSFFAKGVYVRKVGGDTTDFTDGKRIDFDLY | -1.69

soluble fraction (log2) in this record for HMFLTSDEGKIMQLLEDKQRITRKDAQELLGVSQSTAGRILKTLVDNGQITQRGGGRTTRYELIK : 0.22

soluble fraction (log2) in this record for HMEPPAPAPDIPYPSRVTVRREVDGWPHYYGTWTRTPPVLGYEGIWLVGVSLDGKVQFVPVDDVTIA : -0.555

soluble fraction (log2) in this record for HMKQPVPDEIYFKRLANATEALGRYPRASERKKFGLNMSKRRYPTLTDFINKAIELGYVEDFR : 0.22
